test: total protein half-life in vivo (active degradation + dilution); higher = more stable protein; details: wild type E. coli NCM3722; growth: P-lim chemostat; doubling time 12 h
observation-type: total protein half-life in vivo (h)
Numbers only, in h.

{"input-sequence": "MERVSITERPDWREKAHEYGFNFHTMYGEPYWCEDAYYKLTLAQVEKLEEVTAELHQMCLKVVEKVIASDELMTKFRIPKHTWSFVRQSWLTHQPSLYSRLDLAWDGTGEPKLLENNADTPTSLYEAAFFQWIWLEDQLNAGNLPEGSDQFNSLQEKLIDRFVELREQYGFQLLHLTCCRDTVEDRGTIQYLQDCATEAEIATEFLYIDDIGLGEKGQFTDLQDQVISNLFKLYPWEFMLREMFSTKLEDAGVRWLEPAWKSIISNKALLPLLWEMFPNHPNLLPAYFAEDDHPQMEKYVVKPIFSREGANVSIIENGKTIEAAEGPYGEEGMIVQQFHPLPKFGDSYMLIGSWLVNDQPAGIGIREDRALITQDMSRFYPHIFVE [P0ADT5]", "total protein half-life in vivo, h": 11.5}

Parameters: items (list). Returns: total protein half-life in vivo for each item.
1. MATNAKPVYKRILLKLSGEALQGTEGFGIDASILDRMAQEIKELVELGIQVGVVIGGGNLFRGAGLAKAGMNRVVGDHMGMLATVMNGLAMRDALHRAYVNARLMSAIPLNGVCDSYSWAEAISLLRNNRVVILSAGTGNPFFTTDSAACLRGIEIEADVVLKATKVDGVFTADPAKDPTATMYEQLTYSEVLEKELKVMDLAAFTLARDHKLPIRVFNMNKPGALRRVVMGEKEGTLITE [P0A7E9]
2. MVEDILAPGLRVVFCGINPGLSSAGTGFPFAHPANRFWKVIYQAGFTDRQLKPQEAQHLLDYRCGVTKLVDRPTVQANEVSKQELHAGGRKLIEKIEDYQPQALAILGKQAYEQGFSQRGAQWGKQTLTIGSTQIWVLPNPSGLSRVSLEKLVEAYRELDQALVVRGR [P0A9H1]
3. MKTPLVTREGYEKLKQELNYLWREERPEVTKKVTWAASLGDRSENADYQYNKKRLREIDRRVRYLTKCLENLKIVDYSPQQEGKVFFGAWVEIENDDGVTHRFRIVGYDEIFGRKDYISIDSPMARALLKKEVGDLAVVNTPAGEASWYVNAIEYVKP
4. MQNRLTIKDIARLSGVGKSTVSRVLNNESGVSQLTRERVEAVMNQHGFSPSRSARAMRGQSDKVVAIIVTRLDSLSENLAVQTMLPAFYEQGYDPIMMESQFSPQLVAEHLGVLKRRNIDGVVLFGFTGITEEMLAHWQSSLVLLARDAKGFASVCYDDEGAIKILMQRLYDQGHRNISYLGVPHSDVTTGKRRHEAYLAFCKAHKLHPVAALPGLAMKQGYENVAKVITPETTALLCATDTLALGASKYLQEQRIDTLQLASVGNTPLMKFLHPEIVTVDPGYAEAGRQAACQLIAQVTGRSEPQQIIIPATLS
5. MAIALVTGGSRGIGRATALLLAQEGYTVAVNYQQNLHAAQEVMNLITQAGGKAFVLQADISDENQVVAMFTAIDQHDEPLAALVNNAGILFTQCTVENLTAERINRVLSTNVTGYFLCCREAVKRMALKNGGSGGAIVNVSSVASRLGSPGEYVDYAASKGAIDTLTTGLSLEVAAQGIRVNCVRPGFIYTEMHASGGEPGRVDRVKSNIPMQRGGQAEEVAQAIVWLLSDKASYVTGSFIDLAGGK
6. MKTSVRIGAFEIDDGELHGESPGDRTLTIPCKSDPDLCMQLDAWDAETSIPALLNGEHSVLYRTRYDQQSDAWIMRLA
7. MDALSRLLMLNAPQGTIDKNCVLGSDWQLPHGAGELSVIRWHALTQGAAKLEMPTGEIFTLRPGNVVLLPQNSAHRLSHVDNESTCIVCGTLRLQHSARYFLTSLPETLFLAPVNHSVEYNWLREAIPFLQQESRSAMPGVDALCSQICATFFTLAVREWIAQVNTEKNILSLLLHPRLGAVIQQMLEMPGHAWTVESLASIAHMSRASFAQLFRDVSGTTPLAVLTKLRLQIAAQMFSRETLPVVVIAESVGYASESSFHKAFVREFGCTPGEYRERVRQLAP
8. MQKVVLATGNVGKVRELASLLSDFGLDIVAQTDLGVDSAEETGLTFIENAILKARHAAKVTALPAIADDSGLAVDVLGGAPGIYSARYSGEDATDQKNLQKLLETMKDVPDDQRQARFHCVLVYLRHAEDPTPLVCHGSWPGVITREPAGTGGFGYDPIFFVPSEGKTAAELTREEKSAISHRGQALKLLLDALRNG

[14.4, 11.7, 8.01, 10.2, 11.2, 1.16, 12.4, 10.7]

Parameters: items (list). Returns: total protein half-life in vivo for each item.
1. MRTQWPSPAKLNLFLYITGQRADGYHTLQTLFQFLDYGDTISIELRDDGDIRLLTPVEGVEHEDNLIVRAARLLMKTAADSGRLPTGSGANISIDKRLPMGGGLGGGSSNAATVLVALNHLWQCGLSMDELAEMGLTLGADVPVFVRGHAAFAEGVGEILTPVDPPEKWYLVAHPGVSIPTPVIFKDPELPRNTPKRSIETLLKCEFSNDCEVIARKRFREVDAVLSWLLEYAPSRLTGTGACVFAEFDTESEARQVLEQAPEWLNGFVAKGANLSPLHRAML
2. MSFELPALPYAKDALAPHISAETIEYHYGKHHQTYVTNLNNLIKGTAFEGKSLEEIIRSSEGGVFNNAAQVWNHTFYWNCLAPNAGGEPTGKVAEAIAASFGSFADFKAQFTDAAIKNFGSGWTWLVKNSDGKLAIVSTSNAGTPLTTDATPLLTVDVWEHAYYIDYRNARPGYLEHFWALVNWEFVAKNLAA [P0AGD3]
3. MNIYTFDFDEIESQEDFYRDFSQTFGLAKDKVRDLDSLWDVLMNDVLPLPLEIEFVHLGEKTRRRFGALILLFDEAEEELEGHLRFNVRH
4. MSQPLNADQELVSDVVACQLVIKQILDVLDVIAPVEVREKMSSQLKNIDFTNHPAAADPVTMRAIQKAIALIELKFTPQGESH [P0AD10]

10.5
12
10.1
10.3

###

test: total protein half-life in vivo (active degradation + dilution); higher = more stable protein; conditions: wild type E. coli NCM3722; growth: P-lim chemostat; doubling time 12 h
observation-type: total protein half-life in vivo (h)
Give bare numbers, in h.

// worked examples, total protein half-life in vivo included
{"input-sequence": "MKNSKAILQVPGTMKIISAEIPVPKEDEVLIKVEYVGICGSDVHGFESGPFIPPKDPNQEIGLGHECAGTVVAVGSRVRKFKPGDRVNIEPGVPCGHCRYCLEGKYNICPDVDFMATQPNYRGALTHYLCHPESFTYKLPDNMDTMEGALVEPAAVGMHAAMLADVKPGKKIIILGAGCIGLMTLQACKCLGATEIAVVDVLEKRLAMAEQLGATVVINGAKEDTIARCQQFTEDMGADIVFETAGSAVTVKQAPYLVMRGGKIMIVGTVPGDSAINFLKINREVTIQTVFRYANRYPVTIEAISSGRFDVKSMVTHIYDYRDVQQAFEESVNNKRDIIKGVIKISD", "observation-type": "total protein half-life in vivo", "unit-abbreviation": "h", "numeric-value": 9.79}
{"input-sequence": "MAQITTTDANEFSSSAEFIPMRGFSNCHLQTMLPRLFRRQVKFTPYWQRLELPDGDFVDLAWSENPAQAQHKPRLVVFHGLEGSLNSPYAHGLVEAAQKRGWLGVVMHFRGCSGEPNRMHRIYHSGETEDASWFLRWLQREFGHAPTAAVGYSLGGNMLACLLAKEGNDLPVDAAVIVSAPFMLEACSYHMEKGFSRVYQRYLLNLLKANAARKLAAYPGTLPINLAQLKSVRRIREFDDLITARIHGYADAIDYYRQCSAMPMLNRIAKPTLIIHAKDDPFMDHQVIPKPESLPPQVEYQLTEHGGHVGFIGGTLLHPQMWLESRIPDWLTTYLEAKSC", "observation-type": "total protein half-life in vivo", "unit-abbreviation": "h", "numeric-value": 4.3}

Parameters: items (list). Returns: total protein half-life in vivo for each item.
1. MMYHIPGVLSPQDVARFREQLEQAEWVDGRVTTGAQGAQVKNNQQVDTRSTLYAALQNEVLNAVNQHALFFAAALPRTLSTPLFNRYQNNETYGFHVDGAVRSHPQNGWMRTDLSATLFLSDPQSYDGGELVVNDTFGQHRVKLPAGDLVLYPSSSLHCVTPVTRGVRVASFMWIQSMIRDDKKRAMLFELDNNIQSLKSRYGESEEILSLLNLYHNLLREWSEI
2. MIREAQRSELPAILELWLESTTWGHPFIKANYWRDCIPLVRDAYLANAQNWVWEEDGKLLGFVSIMEGRFLAAMFVAPKAVRRGIGKALMQYVQQRHPHLMLEVYQKNQPAINFYQAQGFHIVDCAWQDETQLPTWIMSWPVVQTL
3. MTVRVAINGFGRIGRNVVRALYESGRRAEITVVAINELADAAGMAHLLKYDTSHGRFAWEVRQERDQLFVGDDAIRVLHERSLQSLPWRELGVDVVLDCTGVYGSREHGEAHIAAGAKKVLFSHPGSNDLDATVVYGVNQDQLRAEHRIVSNASCTTNCIIPVIKLLDDAYGIESGTVTTIHSAMHDQQVIDAYHPDLRRTRAASQSIIPVDTKLAAGITRFFPQFNDRFEAIAVRVPTINVTAIDLSVTVKKPVKANEVNLLLQKAAQGAFHGIVDYTELPLVSVDFNHDPHSAIVDGTQTRVSGAHLIKTLVWCDNEWGFANRMLDTTLAMATVAFR [P0A9B6]
4. MKKVLLIILLLLVVLGIAAGVGVWKVRHLADSKLLIKEETIFTLKPGTGRLALGEQLYADKIINRPRVFQWLLRIEPDLSHFKAGTYRFTPQMTVREMLKLLESGKEAQFPLRLVEGMRLSDYLKQLREAPYIKHTLSDDKYATVAQALELENPEWIEGWFWPDTWMYTANTTDVALLKRAHKKMVKAVDSAWEGRADGLPYKDKNQLVTMASIIEKETAVASERDKVASVFINRLRIGMRLQTDPTVIYGMGERYNGKLSRADLETPTAYNTYTITGLPPGAIATPGADSLKAAAHPAKTPYLYFVADGKGGHTFNTNLASHNKSVQDYLKVLKEKNAQ
5. MSAFTPASEVLLRHSDDFEQSRILFAGDLQDDLPARLDTAASRAHTQQFHHWQVLSRQMGDNARFSLVATADDVADCDTLIYYWPKNKPEAQFQLMNLLSLLPVGTDIFVVGENRSGVRSAEQMLADYAPLNKVDSARRCGLYFGRLEKQPVFDAEKFWGEYSVDGLTVKTLPGVFSRDGLDVGSQLLLSTLTPHTKGKVLDVGCGAGVLSVAFARHSPKIRLTLCDVSAPAVEASRATLAANGVEGEVFASNVFSEVKGRFDMIISNPPFHDGMQTSLDAAQTLIRGAVRHLNSGGELRIVANAFLPYPDVLDETFGFHEVIAQTGRFKVYRAIMTRQAKKG
6. MTMSLEVFEKLEAKVQQAIDTITLLQMEIEELKEKNNSLSQEVQNAQHQREELERENNHLKEQQNGWQERLQALLGRMEEV [P0AF36]
7. MIKLSNITKVFHQGTRTIQALNNVSLHVPAGQIYGVIGASGAGKSTLIRCVNLLERPTEGSVLVDGQELTTLSESELTKARRQIGMIFQHFNLLSSRTVFGNVALPLELDNTPKDEVKRRVTELLSLVGLGDKHDSYPSNLSGGQKQRVAIARALASNPKVLLCDEATSALDPATTRSILELLKDINRRLGLTILLITHEMDVVKRICDCVAVISNGELIEQDTVSEVFSHPKTPLAQKFIQSTLHLDIPEDYQERLQAEPFTDCVPMLRLEFTGQSVDAPLLSETARRFNVNNNIISAQMDYAGGVKFGIMLTEMHGTQQDTQAAIAWLQEHHVKVEVLGYV
8. MGNRTKEDELYREMCRVVGKVVLEMRDLGQEPKHIVIAGVLRTALANKRIQRSELEKQAMETVINALVK [P0ACX5]

1. 11.4
2. 6.74
3. 10
4. 12
5. 12.9
6. 8.35
7. 12.1
8. 12.6

Parameters: items (list). Returns: total protein half-life in vivo for each item.
1. MDKFDANRRKLLALGGVALGAAILPTPAFATLSTPRPRILTLNNLHTGESIKAEFFDGRGYIQEELAKLNHFFRDYRANKIKSIDPGLFDQLYRLQGLLGTRKPVQLISGYRSIDTNNELRARSRGVAKKSYHTKGQAMDFHIEGIALSNIRKAALSMRAGGVGYYPRSNFVHIDTGPARHW [P0AB06]
2. MATTQQSGFAPAASPLASTIVQTPDDAIVAGFTSIPSQGDNMPAYHARPKQSDGPLPVVIVVQEIFGVHEHIRDICRRLALEGYLAIAPELYFREGDPNDFADIPTLLSGLVAKVPDSQVLADLDHVASWASRNGGDVHRLMITGFCWGGRITWLYAAHNPQLKAAVAWYGKLTGDKSLNSPKQPVDIATDLNAPILGLYGGQDNSIPQESVETMRQALRAANAKAEIIVYPDAGHAFNADYRPSYHAASAEDGWQRMLEWFKQYGGKKSL

2.46
8.35
